# assayRemarks: Transfer into each organ: carotenoid concentration in organs of cynomolgus monkeys (Test Example 3)
# Type: in vivo
# testParameters: cynomolgus monkey, liver, oral, 50 mg/kg, 50 mg/kg intragastric once daily for 10 days, after last administration, read-out: Concentration in organ: Liver
parameterMeasured: concentration at 10 days
Write the numeric value and follow it with the unit.

Asked: State, in one line, measured concentration at 10 days of CC1=C(/C=C/C(C)=C/C=C/C(C)=C/C=C/C=C(C)/C=C/C=C(C)/C=C/C2=C(C)C(=O)C(O)CC2(C)C)C(C)(C)CC(O)C1 (stereo not drawn) [adonixanthin, 3,3′-dihydroxy-β,β-caroten-4-one]
Given back: 1120 ng/g
